From: ChEMBL document CHEMBL1152591

species: Bos taurus; experiment: Displacement of [3H]colchicine from bovine tubulin at 5 uM
Activity overview
Report only the number, with the unit % understood.

Completed entries (count: 3):
smilesInput: COc1cc(C(=O)c2oc3ccc(O)cc3c2C)cc(OC)c1OC
Activity, %: 69
--
smilesInput: COc1ccc(/C=C\c2cc(OC)c(OC)c(OC)c2)cc1O
Activity, %: 99
--
smilesInput: CCOc1ccc2c(C)c(C(=O)c3cc(OC)c(OC)c(OC)c3)oc2c1
Activity, %: 96

Q: Which measured Activity value corresponds to `COc1cc(C(=O)c2oc3cccc(OC)c3c2C)cc(OC)c1OC` ?
Result: 66

Q: Input `COc1cc(C(=O)c2oc3cccc(O)c3c2C)cc(OC)c1OC`
Result: 85

Q: Input `COc1ccc2cc(C(=O)c3cc(OC)c(OC)c(OC)c3)oc2c1`
Result: 79
